target: group 1: ZNF566 and ARNTL homologous peptide/HLA-A*02:01 complexes (mixed); experiment: SPR (BIAcore T200), crude scFv captured, mixed complexes flowed over
SPR binding level: recorded values
Record the result as a number with its unit.

Example cases with answers are listed next.
Ask: Kindly indicate its recorded SPR binding level. Item: 40-AS170036 VL1VH1-56Y98F108A (scFv) scFv: QSALTQPRSVSGSPGQSVTISCAGTSSDVGSENYVSWYQQHPGKAPKLMIYQVNKRASGVPDRFSGSKSGNTASLTISGLQAEDEADYYCASYRSSDFNIVFGGGTKLTVLGGGGSGGGGSGGGGSEVQLVESGGGLVQPGGSLRLSCAASGFTFSSYAMSWVRQAPGKGLEWVSTINSGTYSPYYADSVKGRFTISRDNSKNTLYLQMNSLRAEDTAVYYCAKNFFDGSWFLAPPAMDYWGQGTLVTVSSHHHHHH
Reply: 13.8 RU

Ask: Kindly indicate its recorded SPR binding level. Item: AS170036 VL1VH1 (scFv) scFv: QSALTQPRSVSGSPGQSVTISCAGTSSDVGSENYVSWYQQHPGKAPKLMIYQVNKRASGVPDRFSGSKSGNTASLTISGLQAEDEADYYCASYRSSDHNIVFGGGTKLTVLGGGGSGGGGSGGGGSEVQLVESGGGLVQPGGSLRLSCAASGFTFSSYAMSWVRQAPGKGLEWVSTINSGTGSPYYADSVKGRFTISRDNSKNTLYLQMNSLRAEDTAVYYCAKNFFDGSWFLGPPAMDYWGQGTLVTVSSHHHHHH
Reply: 0.8 RU

Continuing:
Ask: Kindly indicate its recorded SPR binding level. Item: 27-AS170036 VL1VH1-57K108S (scFv) scFv: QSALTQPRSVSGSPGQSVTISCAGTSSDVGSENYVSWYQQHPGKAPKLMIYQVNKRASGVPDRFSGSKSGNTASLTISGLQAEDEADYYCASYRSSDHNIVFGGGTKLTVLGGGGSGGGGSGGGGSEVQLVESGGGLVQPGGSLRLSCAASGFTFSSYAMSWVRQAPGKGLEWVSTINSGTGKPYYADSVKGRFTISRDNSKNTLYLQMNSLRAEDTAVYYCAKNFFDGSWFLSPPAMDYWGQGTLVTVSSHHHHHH
Reply: 6.1 RU
